- Assay Target: human vWF A1 domain (SEQ ID NO 5) (Homo sapiens, UniProt P04275, T1381A)
- Sequence (P04275 with tags, fused parts or gaps T1381A): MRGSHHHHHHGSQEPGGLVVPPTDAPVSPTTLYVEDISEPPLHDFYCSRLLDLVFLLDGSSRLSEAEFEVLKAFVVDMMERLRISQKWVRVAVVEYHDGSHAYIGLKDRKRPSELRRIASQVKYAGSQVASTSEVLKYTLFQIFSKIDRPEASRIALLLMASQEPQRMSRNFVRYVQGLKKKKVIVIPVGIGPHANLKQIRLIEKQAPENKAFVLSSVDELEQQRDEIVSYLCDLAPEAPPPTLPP
- Protocol: 3-point dot blot screen, human vWF A1 domain
- Type: binding
- Conditions Used: rRdY aptamers; 100 nM human vWF A1 domain; ratio of fraction bound with target to without
Oligonucleotides are written 5' to 3', each unit as a sugar letter and its base; * is a phosphorothioate linkage, no mark a phosphodiester; rarer units and linkages stand in square brackets, end groups in braces. Plain capitals give the bases only. d = 2'-deoxy (DNA); r = 2'-OH (RNA)
I'd be grateful if you could share measured Screen- Human/No Protein for these entries.

### Prompt Provide only the value of recorded Screen- Human/No Protein for AMX206.A10: rRdY aptamer clone (nucleic acid) rGrGrArGdCrGdCrAdCdTdCrArGdCdCrAdCrGrGdCrAdTrGrAdCrGrGdTrGrAdTrGrArAdTdTrArGdCrGdCrGrGdTrGdTdCrGrGdTrGrGdTrGdTdCrAdTdTdTdCrGrAdCdCdTdCdTdCdTrGdCdTrArGdC
### Response 2.62

### Prompt Supply reported Screen- Human/No Protein belonging to this molecule: AMX206.D7: rRdY aptamer clone (nucleic acid) rGrGrArGdCrGdCrAdCdTdCrArGdCdCrAdCrGrGdCrAdCrGrAdCrGrGdTrGrAdTrGrArAdTdTrArGdCrGdCrGrGdTrGdTdCrGrGdTrGrGdTrGdTdTrAdTdTdTdCrGrAdCdCdTdCdTdCdTrGdCdTrArGdC
### Response 2.19

### Prompt Given the molecule AMX206.H9: rRdY aptamer clone (nucleic acid) rGrGrArGdCrGdCrAdCdTdCrArGdCdCrAdCrGrGrArGdCrGdTdCrGrGdTrGrAdTrGrGrAdTdTrArGdCrGdCrGrGdTdTdCdCrGdTrGrGdTrAdCrAdCdCdTdTdTdCrGrAdCdCdTdCdTdCdTrGdCdTrArGdC , write its reported Screen- Human/No Protein.
### Response 1.98
